target: glucagon receptor (GCGR), primary cAMP assay cell line (human, UniProt P47871 26-477); experiment: cell-based or functional assay
Sequence (P47871 26-477): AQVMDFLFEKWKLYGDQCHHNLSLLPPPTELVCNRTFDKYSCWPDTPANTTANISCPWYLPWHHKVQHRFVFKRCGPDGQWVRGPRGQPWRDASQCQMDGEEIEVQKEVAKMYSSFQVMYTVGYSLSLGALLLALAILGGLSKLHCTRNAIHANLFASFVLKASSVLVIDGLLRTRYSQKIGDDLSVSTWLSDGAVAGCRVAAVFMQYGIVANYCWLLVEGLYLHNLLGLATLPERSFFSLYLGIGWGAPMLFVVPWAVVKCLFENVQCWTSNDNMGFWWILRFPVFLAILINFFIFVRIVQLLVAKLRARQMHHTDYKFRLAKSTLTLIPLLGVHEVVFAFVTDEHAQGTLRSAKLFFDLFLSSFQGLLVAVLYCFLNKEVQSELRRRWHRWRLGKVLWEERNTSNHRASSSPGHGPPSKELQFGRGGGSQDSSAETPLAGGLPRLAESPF
Starred links: 1 amine or outer side, 2 acyl side, 3 side chain; linkers in the order of their positions; H or OH if unused. Non-standard residues stand in square brackets, D forms with d. Groups on a side chain read outwards from the residue. Primed or numbered codes have the meaning given here. No end group written: not given here. *: point of attachment. γGlu = O=C(O)[C@H](CCC(=O)[*:2])N[*:1]; αMeF = C[C@](N)(Cc1ccccc1)C(=O)O; αMeK = C[C@](N)(CCCCN)C(=O)O; Lauroyl = CCCCCCCCCCCC(=O)*; αMeS = C[C@](N)(CO)C(=O)O; PEG2′ = not defined here; Aib = CC(C)(N)C(=O)O
Assay Metric: cAMP Primary assay EC50, n2 (nM)
Reply with just the number (in nM).

Binder	Assay Metric	Output Unit	Quantitative Result
H[Aib]EGS[αMeF]TSDV[αMeS]SK([PEG2′-PEG2′-γGlu-Lauroyl])LEGK([PEG2′-PEG2′-γGlu-Lauroyl])AA[αMeK]EFIK([PEG2′-PEG2′-γGlu-Lauroyl])FVVEGG-NH2 [SEQ ID NO: 448]	cAMP Primary assay EC50, n2	nM	19.9

Using known records, supply cAMP Primary assay EC50, n2 for H[Aib]EGS[αMeF]TSDK([PEG2′-PEG2′-γGlu-Lauroyl])SSYLEGEK([PEG2′-PEG2′-γGlu-Lauroyl])A[αMeK]EFIK([PEG2′-PEG2′-γGlu-Lauroyl])FVVEGG-NH2 [SEQ ID NO: 441] 19.5

Using known records, supply cAMP Primary assay EC50, n2 for H[Aib]EGS[αMeF]TSDK([PEG2′-PEG2′-γGlu-Lauroyl])SSYLEK([PEG2′-PEG2′-γGlu-Lauroyl])EAA[αMeK]EFIK([PEG2′-PEG2′-γGlu-Lauroyl])FVVEGG-NH2 [SEQ ID NO: 439] 19.5

Using known records, supply cAMP Primary assay EC50, n2 for H[Aib]EGS[αMeF]TSDVSK([PEG2′-PEG2′-γGlu-Lauroyl])YLEGEK([PEG2′-PEG2′-γGlu-Lauroyl])A[αMeK]EFIAK([PEG2′-PEG2′-γGlu-Lauroyl])VVEGG-NH2 [SEQ ID NO: 461] 19.8
